Target: T1, TRBV5-1 antigenic peptide No. 1 (TQTPRYLIKTRGQQ), biotinylated (Homo sapiens, also: biotinylated (site not given here))
T1 construct: short form of antigenic peptide No. 1 of the TRBV5-1 segment of the human TCR beta chain; probably held on streptavidin, since its control is PBS-streptavidin (surmise); also called Ag3; peptide-biotin; source: synthetic peptide (Proteogenix)
T1 chain: TQTPRYLIKTRGQQ
Assay: ELISA; confirmatory monoclonal phage ELISA; antigens peptide alone, peptide-BSA, peptide-biotin; controls PBS, 10% BSA-PBS, PBS-streptavidin; phage dilution factors 1, 3, 9
Settings: one partner purified
Ends that are not written are not given here.
readout.label: ELISA signal at phage dilution factor 9

1) scFv clone A2 (scFv, V domains shown, tested as phage clone in the confirmatory monoclonal ELISA; source: phage display clone from the human naive scFv library LiAb-SFMAX (Proteogenix), amplified in E. coli TG1) VH: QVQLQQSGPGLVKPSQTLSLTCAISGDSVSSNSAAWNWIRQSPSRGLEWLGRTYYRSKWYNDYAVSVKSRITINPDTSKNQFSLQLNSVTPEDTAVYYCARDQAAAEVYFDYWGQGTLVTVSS VL: NFMLTQPHSVSESPGKTVTISCTRSSGSIASNYLQWYQQRPGSAPTTVIYEDNQRPSGVPDRFSGSIDSSSNSASLTISGLKTEDEADYYCQSYDNRNHWVFGGGTQLTVL; 1.28
2) scFv clone A5 (scFv, V domains shown, as printed identical to the VH of A2; tested as phage clone in the confirmatory monoclonal ELISA; source: phage display clone from the human naive scFv library LiAb-SFMAX (Proteogenix), amplified in E. coli TG1) VH: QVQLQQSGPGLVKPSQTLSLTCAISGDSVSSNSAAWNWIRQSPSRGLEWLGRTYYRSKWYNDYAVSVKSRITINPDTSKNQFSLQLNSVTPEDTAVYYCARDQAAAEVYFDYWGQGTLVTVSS VL: NFMLTQPHSVSESPGKTVTISCTRSSGSIASNYVQWYQQRPGSSPTTVIYEDNQRPSGVPDRFSGSIDSSSNSASLTISGLKTEDEADYYCQSYDSSNHWVFGGGTKVTVL; 1.55
3) scFv clone D5 (scFv, V domains shown, tested as phage clone in the confirmatory monoclonal ELISA; source: phage display clone from the human naive scFv library LiAb-SFMAX (Proteogenix), amplified in E. coli TG1) VH: QVQLVQSGAEVKKPGASVKVSCKPSGYYFNGYDITWVRQAIGQGLEWMGWMNPNSGNRDYAHQFQGRLTMTWDTSLSTAYLELNNLQSDDTAIYYCARERVSSGLDFWGQGTLVTVSS VL: SYELTQPPSVSVSPGQTARITCSGDALPKQYAYWYQQKPGQAPVLLIYKDSERPSGIPERFSGSSSGTTVTLTISGVQAEDEADYYCQSADSSGTYVVFGGGTQLTVL; 1.67
4) scFv clone A8 (scFv, V domains shown, tested as phage clone in the confirmatory monoclonal ELISA; source: phage display clone from the human naive scFv library LiAb-SFMAX (Proteogenix), amplified in E. coli TG1) VH: QVQLVQSGPEMKKAGASVRVSCKGSGYTFSSFDINWVRQVPGQGLEWMGWMNPDTGNTGLAQKFQGRVTMTRDTSIRTAYMELRSLRSDDTAVYYCARDAPRNGRGMDVWGQGTMVTVSS VL: SYELTQPPSVSVSPGQTARITCSGDALPKQYAYWYQQKPGQAPVLVIYQDTKRPSGIPERFSGSSSGTTVTLTISGVQAEDEADYYCQSADSSGTYPVFGGGTKLTVL; 2
5) scFv clone C10 (scFv, V domains shown, tested as phage clone in the confirmatory monoclonal ELISA; source: phage display clone from the human naive scFv library LiAb-SFMAX (Proteogenix), amplified in E. coli TG1) VH: EVQLVQSGAEVKKPGSSVKVSCKASGGTFSSYAISWVRQAPGQGLEWMGGIIPIFGTANYAQKFQGRVTITADKSTSTAYMELSSLRSEDTAVYYCAREPLRGYSGYDFYYYGMDVWGQGTMVTVSS VL: SYELTQPHSVSGSPGETVTISCAGSGGSIASNYVQWYQQRPGSAPTTLIYEDKVRPSGVPDRFSGSIDYSSDSASLTISGLKTEDEADYYCQSADSTSTYVFGTGTKVTVL; 1.62
6) scFv clone A12 (scFv, V domains shown, tested as phage clone in the confirmatory monoclonal ELISA; lead scFv from which the r-hIgG1 mAb was made; also called lead scFv; source: phage display clone from the human naive scFv library LiAb-SFMAX (Proteogenix), amplified in …) VH: QVQLQQWGAGLLKPSETLSLTCAVYGGSFSGYYWSWIRQPPGKGLEWIGEINHSGSTNYNPSLKSRVTISVDTSKNQFSLKLSSVTAADTAVYYCARWDLDYWGQGTLVTVSS VL: EIVLTQSPLSLPVTLGQSASISCRSSQSLVHSDGNTYLNWFQQRPGQSPRRLIYQVSKRDSGVPDRFSGSGSGTDFTLRISRVEAEDVGFYYCMQGTHWPPITFGQGTRLEIK; 1.22

Where these numbers come from: paper PMC11686114
